src = patent US20060008846A1

Molecular target: T1, ALK4 (activin type I receptor) (UniProt P36896)
T1 sequence (looked up): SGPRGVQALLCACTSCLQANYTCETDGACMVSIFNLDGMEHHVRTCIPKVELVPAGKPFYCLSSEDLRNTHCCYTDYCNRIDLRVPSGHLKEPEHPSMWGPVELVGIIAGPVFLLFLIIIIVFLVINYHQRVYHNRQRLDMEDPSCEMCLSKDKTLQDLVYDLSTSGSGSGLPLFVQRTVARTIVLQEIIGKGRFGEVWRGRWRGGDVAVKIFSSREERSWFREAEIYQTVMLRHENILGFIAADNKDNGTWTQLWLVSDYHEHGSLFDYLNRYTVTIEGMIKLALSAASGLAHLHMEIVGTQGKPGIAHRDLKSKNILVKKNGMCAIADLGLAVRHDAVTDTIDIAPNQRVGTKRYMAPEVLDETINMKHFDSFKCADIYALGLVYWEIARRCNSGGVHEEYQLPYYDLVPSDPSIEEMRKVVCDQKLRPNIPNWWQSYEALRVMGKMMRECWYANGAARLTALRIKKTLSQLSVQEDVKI
Assay: cell-based or functional assay
property: % Activin Activity (A3-luciferase assay in 293T cells) (% of wild type activin-A)
Enter a number only.

activin-A A31Q (ligand, human, UniProt P08476 311-426, looked up) GLECDGKVNICCKKQFFVSFKDIGWNDWIIQPSGYHANYCEGECPSHIAGTSGSSLSFHSTVINHYRMRGHSPFANLKSCCVPTKLRPMSMLYYDDGQNIIKKDIQNMIVEECGCS
84

Next binder, % Activin Activity (A3-luciferase assay in 293T cells) (% of wild type activin-A) to be filled in.
Exam item: Look up % Activin Activity (A3-luciferase assay in 293T cells) (% of wild type activin-A): activin-A S60A/T61A (ligand, human, UniProt P08476 311-426, looked up) GLECDGKVNICCKKQFFVSFKDIGWNDWIIAPSGYHANYCEGECPSHIAGTSGSSLSFHAAVINHYRMRGHSPFANLKSCCVPTKLRPMSMLYYDDGQNIIKKDIQNMIVEECGCS
Marked response: 97
